- Test system: Pseudomonas aeruginosa GN 315
- Assay Procedure: MIC, standard serial dilution method
- Type: cell-based
- Condition: GN315; Pseudomonas aeruginosa GN 315; resistance mechanism AAC(6'); Mueller-Hinton agar, 37° C; read-out: MIC
As shown below, each of these molecules has a reported MIC value.
Test Readout: MIC

>>> value("CCN[C@@H]1C[C@H](N)[C@@H](O[C@H]2OC(CN)=CC[C@H]2N)C(F)(F)[C@H]1O[C@H]1OC[C@](C)(O)[C@H](NC)[C@H]1O [5FF-Netilmicin, 5-deoxy-5,5-difluoronetilmicin]")
"> 100 µg/mL"
>>> value("NCC[C@H](O)C(=O)N[C@@H]1C[C@H](N)[C@@H](O[C@H]2O[C@H](CN)[C@@H](O)[C@H](O)[C@H]2O)C(F)(F)[C@H]1O[C@H]1O[C@H](CO)[C@@H](O)[C@H](N)[C@H]1O [Compound 5FF-amikacin]")
"> 100 µg/mL"
>>> value("NC[C@@H]1CC[C@@H](N)[C@@H](O[C@@H]2[C@@H](N)C[C@@H](N)[C@H](O[C@H]3O[C@H](CO)[C@@H](O)[C@H](N)[C@H]3O)C2(F)F)O1 [Compound 5FF-DKB, 5,3',4'-trideoxy-5,5-difluorokanamycin B]")
"> 100 µg/mL"
>>> value("CCN[C@@H]1C[C@H](N)[C@@H](O[C@H]2OC(CN)=CC[C@H]2N)[C@H](O)[C@H]1O[C@H]1OC[C@](C)(O)[C@H](NC)[C@H]1O [Netilmicin, netilmicin, reference compound]")
"> 100 µg/mL"
